organism: Rattus norvegicus; test: Activity at rat GABAA alpha-1-beta-2-gamma-2L receptor expressed in Xenopus laevis expressed in assessed as ratio of current in treated to non-treated oocyte at 1 uM by electrophysiology
Metric name: Ratio
Could you keep your reply to the number by itself?

# count of solved cases: 3
>>> value_reported("C[C@@]12CC[C@H](O)C[C@@H]1CC[C@@H]1[C@@H]2CC[C@]2(C)[C@H]1CC[C@]21CO1")
10.5
>>> value_reported("C[C@@]12CC[C@H](O)C[C@H]1CC[C@@H]1[C@@H]2CC[C@@]2(C)C(=O)CC[C@@H]12")
3.66
>>> value_reported("CC(=O)[C@@H]1CC[C@H]2[C@@H]3CC[C@H]4C[C@@H](O)CC[C@@]4(C)[C@H]3CC[C@@]12C")
2.82

// next entry
Query: If you can, please state the reported Ratio value of `C[C@]12CC[C@@H](O)C[C@@H]1CC[C@@H]1[C@@H]2CC[C@]2(C)C(=O)CC[C@@H]12` .
Result: 1.41
